B1: Pistol ribozyme (parent)
chain: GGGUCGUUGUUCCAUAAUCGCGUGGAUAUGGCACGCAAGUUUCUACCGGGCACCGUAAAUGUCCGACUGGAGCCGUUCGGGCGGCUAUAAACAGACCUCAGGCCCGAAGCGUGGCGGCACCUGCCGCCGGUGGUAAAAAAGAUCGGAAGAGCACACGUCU

variants of: B1; assay: aptazyme ON/OFF ratio, guanine; higher = stronger switching; co-transcriptional cleavage with and without guanine
Quick reference: aptazyme ON/OFF ratio of the listed items.

Would you please look over these solved cases?
MUTATION_ID: U7A U8A U10A U11C C12U C13G
RESULT: 1.1
//
MUTATION_ID: U7A U8A G9C U10A U11A C12G C13U
RESULT: 1.19
//
MUTATION_ID: U7G U8A G9A U11C C12A
RESULT: 1.17
//
MUTATION_ID: U8C G9A U11C C13U
RESULT: 1.04
//
MUTATION_ID: U7G G9A U11C C12G C13U
RESULT: 1.13
//
MUTATION_ID: U7G U8A U10C U11G C12U
RESULT: 1.32
//
MUTATION_ID: U7C U8G G9C U10C U11C C12U
RESULT: 1.04
//
MUTATION_ID: U7A U8G G9C U10A U11C C12A C13G
RESULT: 1.28
//
MUTATION_ID: U7C U8G G9C U10A U11A C12A C13G
RESULT: 1.15
//
MUTATION_ID: G9C U10G C13A
RESULT: 1.28

Lab note: U7G U8A U10C U11G C12G gave aptazyme ON/OFF ratio of 1.49

Per the record, U7A G9C U10A C12A C13G has aptazyme ON/OFF ratio of 1.09

aptazyme ON/OFF ratio in this record for U7G U8C G9C C12A C13G : 1.15

Record U7A G9C U10C U11A C12U . Reported aptazyme ON/OFF ratio: 1.04

Memo: U7G U8G G9U U10A U11A C12G C13U , reported aptazyme ON/OFF ratio: 1.14

// sample U8G G9U U10G U11C C12U C13G , its aptazyme ON/OFF ratio was 1.03

The variant listed as U7C U8A G9U U10A U11G C12U has a reported aptazyme ON/OFF ratio of 1.13

Value of measured aptazyme ON/OFF ratio for the entry U7A U8A G9C U10A U11G C12U : 1.22
